- Tested on: Human immunodeficiency virus 1
- assay.text: Antiviral activity against NNRTI-resistant HIV1 isolate N119 infected in PHA-stimulated human PBMC assessed as reduction in p24 level after 7 days by ELISA
- Type: functional, organism-based
- condition.context: Human immunodeficiency virus 1, isolate N119, PBMC, 168 h
experimental.endpoint: IC50 (nM)
Answers are plain numbers, in nM.

>  <compound>
COc1cc2c(O[C@@H]3O[C@H](C)[C@@H](O)[C@H](O)[C@H]3O)c3c(c(-c4ccc5c(c4)OCO5)c2cc1OC)C(=O)OC3 [PATENTIFLORIN A]

>  <measurement.units>
nM

>  <IC50>
47

$$$$

// switching to the query compound
Reported IC50 for Cc1cn([C@H]2C[C@H](N=[N+]=[N-])[C@@H](CO)O2)c(=O)[nH]c1=O [ZIDOVUDINE] : what is it?
5.2

* * *

- Test system: Human immunodeficiency virus 1
- assay.text: Antiviral activity against HIV1 isolate 89.6 infected in PHA-stimulated human PBMC assessed as reduction in p24 level after 7 days by ELISA
- Type: functional, organism-based
- condition.context: pbmc
experimental.endpoint: IC50 (nM)
Answers are plain numbers, in nM.

Reported IC50 for COc1cc2c(O[C@@H]3O[C@H](C)[C@@H](O)[C@H](O)[C@H]3O)c3c(c(-c4ccc5c(c4)OCO5)c2cc1OC)C(=O)OC3 : what is it?
31

* * *

- assay.text: Cytotoxicity against human PBMC after 48 hrs by CellTiter 96 AQueous one solution cell proliferation assay
- Assay type: cell-based
experimental.endpoint: CC50 at 48 h (µM)
Answers are plain numbers, in µM.

Reported CC50 at 48 h for COc1cc2c(O[C@@H]3O[C@H](C)[C@@H](O)[C@H](O)[C@H]3O)c3c(c(-c4ccc5c(c4)OCO5)c2cc1OC)C(=O)OC3 : what is it?
75

* * *

Please respond with reported pIC50 for every item in the list.
- System: Human immunodeficiency virus 1
- assay.text: Antiviral activity against HIV1 isolate SF162 infected in PHA-stimulated human PBMC assessed as reduction in p24 level after 7 days by ELISA
- Format: functional, organism-based
- condition.context: Human immunodeficiency virus 1, isolate SF162, PBMC, 168 h
Give bare numbers, as −log10 of the molar value.

>  <molecular.string>
COc1cc2c(O[C@@H]3O[C@H](C)[C@@H](O)[C@H](O)[C@H]3O)c3c(c(-c4ccc5c(c4)OCO5)c2cc1OC)C(=O)OC3

>  <pIC50>
7.43

$$$$

Reported pIC50 for Cc1cn([C@H]2C[C@H](N=[N+]=[N-])[C@@H](CO)O2)c(=O)[nH]c1=O : what is it?
7.07

* * *

- Tested on: Human immunodeficiency virus 1
- assay.text: Antiviral activity against HIV1 isolate BAL infected in PHA-stimulated human PBMC assessed as reduction in p24 level after 7 days by ELISA
- Type: functional, organism-based
- condition.context: pbmc
experimental.endpoint: IC50
Number first, unit second: that is the form wanted.

Reported IC50 for COc1cc2c(O[C@@H]3O[C@H](C)[C@@H](O)[C@H](O)[C@H]3O)c3c(c(-c4ccc5c(c4)OCO5)c2cc1OC)C(=O)OC3 : what is it?
32 nM

* * *

- System: Human immunodeficiency virus 1
- assay.text: Antiviral activity against HIV1 isolate LAV0.04 infected in PHA-stimulated human PBMC assessed as reduction in p24 level after 7 days by ELISA
- Format: functional, organism-based
- condition.context: Human immunodeficiency virus 1, isolate LAV0.04, PBMC, 168 h
Please respond with reported IC50 for every item in the list.
Numbers only, in nM.

>  <molecular.string>
Cc1cn([C@H]2C[C@H](N=[N+]=[N-])[C@@H](CO)O2)c(=O)[nH]c1=O

>  <experimental.endpoint>
IC50

>  <result>
79

$$$$

// switching to the query compound
Reported IC50 for COc1cc2c(O[C@@H]3O[C@H](C)[C@@H](O)[C@H](O)[C@H]3O)c3c(c(-c4ccc5c(c4)OCO5)c2cc1OC)C(=O)OC3 : what is it?
24
